# assay name: Subcutaneous and oral toxicity (LD50) in the rat
# assay setup: in vivo, sc, subcutaneous, read-out: Subcutaneous toxicity (LD50)

>  <compound string>
CCC[C@]1(O)CC[C@H]2[C@@H]3CCC4=CC(=O)CC[C@]4(C)[C@H]3CC[C@@]21C

>  <LD50>
> 1000 mg/kg

$$$$

---

# assay name: Subcutaneous and oral toxicity (LD50) in the mouse
# assay setup: in vivo, sc, subcutaneous, read-out: Subcutaneous toxicity (LD50)

>  <compound>
CCC[C@]1(O)CC[C@H]2[C@@H]3CCC4=CC(=O)CC[C@]4(C)[C@H]3CC[C@@]21C [Compd. I, 17α-(n-propyl)androst-4-en-17β -ol-3-one]

>  <LD50>
> 1000 mg/kg

$$$$

Every entry's value here was drawn from patent US4039669A.
